- STUDY TARGET: T1, human TNFR1 on HeLa cells (human, UniProt P19438 30-455)
- T1 sequence (looked up): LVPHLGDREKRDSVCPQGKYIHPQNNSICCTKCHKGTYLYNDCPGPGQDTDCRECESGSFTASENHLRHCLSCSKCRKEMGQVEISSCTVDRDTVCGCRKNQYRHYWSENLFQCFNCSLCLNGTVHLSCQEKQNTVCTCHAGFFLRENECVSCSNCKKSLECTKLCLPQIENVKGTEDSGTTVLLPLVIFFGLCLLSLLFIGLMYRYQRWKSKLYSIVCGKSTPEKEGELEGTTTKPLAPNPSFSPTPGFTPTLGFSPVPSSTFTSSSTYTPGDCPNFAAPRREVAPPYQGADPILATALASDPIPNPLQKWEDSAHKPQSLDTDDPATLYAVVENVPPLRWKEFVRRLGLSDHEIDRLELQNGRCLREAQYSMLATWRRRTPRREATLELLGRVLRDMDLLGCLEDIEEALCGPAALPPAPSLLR
- PROTOCOL DETAILS: cell-based or functional assay
ASSAY ENDPOINT: HeLa IL-8 Cell Assay, Activity (IC50)

BINDER: TAR2h-18 (other) EVQLLESGGGLVQPGGSLRLSCAASGFTFADYNMTWVRQAPGKGLEWVSWIDQEGVFTYYADSVKGRFTISRDNSKNTLYLQMNSLRAEDTAVYYCAKDFSAAVMLRTSFDYWGQGTLVTVSS
HeLa IL-8 Cell Assay, Activity (IC50): 400 nM
--
BINDER: TAR2h-10-55 (other) EVQLLESGGGLVQPGGSLRLSCAASGFPFEWYWMGWVRQAPGKGLEWVSAISGSGDSTYYADSVKGRFTISRDNSKNTLYQQMNSLRAEDAAVYYCAKVKLGGGPNFGYRGQGTLVTVSS
HeLa IL-8 Cell Assay, Activity (IC50): 20 nM
--
BINDER: TAR2h-35 (other) EVQLLESGGGLVQPGGSLRLSCAASGFTFDAYNMFWVRQAPGKGLEWVSAISPSGRETYYADSVKGRFTISRDNSKNTLYLQMNSLRAEDTAVYYCAKRYPDFDYWGQGTLVTVSS
HeLa IL-8 Cell Assay, Activity (IC50): 800 nM
--
BINDER: TAR2h-16 (other, anti-human TNFR1 dAb) EVQLLESGGGLVQPGGSLRLSCAASGFTFGNYDMQWVRQAPGKGLEWVSSIDGTGGTTYYADSVKGRFTISRDNSKNTLYLQMNSLRAEDTAVYYCAQETNAFDYWGQGTLVTVSS
HeLa IL-8 Cell Assay, Activity (IC50): 200 nM
--
BINDER: TAR2h-27 (other, anti-human TNFR1 dAb) EVQLLESGGGLVQPGGSLRLSCAASGFTFTDYNMAWVRQAPGKGLEWVSFISQEGHHTYYADSVKGRFTISRDNSKNTLYLQMNSLRAEDTAVYYCAKFSTIATLSLFDYWGQGTLVTVSS
HeLa IL-8 Cell Assay, Activity (IC50): 3000 nM

// fetch HeLa IL-8 Cell Assay, Activity (IC50) given entry TAR2h-67 (other) EVQLLESGGGLVQPGGSLRLSCAASGFTFEDYPMAWVRQAPGKGLEWVSFIGLKGIHTYYADSVKGRFTISRDNSKNTLYLQMNSLRAEDTAVYYCAKDLNNFDYWGQGTLVTVSS
300 nM

// fetch HeLa IL-8 Cell Assay, Activity (IC50) given entry TAR2h-29 (other, anti-human TNFR1 dAb) EVQLLESGGGLVQPGGSLRLSCAASGFTFATYNMGWVRQAPGKGLEWVSSIAWLGSETYYADSVKGRFTISRDNSKNTLYLQMNSLRAEDTAVYYCAKHCKAECTGDLFDYWGQGTLVTVSS
300 nM

// fetch HeLa IL-8 Cell Assay, Activity (IC50) given entry TAR2h-10-7 (other) EVQLLESGGGLVQPGGSLRLSCAASGFTFEWYWMGWVRQAPGKGLEWVSAISGSGGSTYYADSVKGRFTISRDNSKNTLYLQMNSLRAKDTAVYYCAKVKLGGGPNFDYRGQGTLVTVSS
30 nM

The reported numbers originate from patent US20130022605A1.
